Assay: AUC (last) in rat at 10 mg/kg, po measured up to 24 hrs by LC-MS/MS analysis
Type: ADME, organism-based
Parameters: dose 10 mg/kg, time 0 - last, route oral
Settings: in vivo
Measured AUC(0-t) at 24 h, listed per entry for reference.

Look up AUC(0-t) at 24 h for this molecule: COC(=O)N[C@H](C(=O)N1CCC[C@H]1c1ncc(-c2ccc3c(c2)CCc2cc(-c4cnc([C@@H]5CCCN5C(=O)[C@@H](NC(=O)OC)C(C)C)[nH]4)sc2-3)[nH]1)C(C)C
6 to 24 µM·h

Which AUC(0-t) at 24 h is listed for COC(=O)N[C@H](C(=O)N1CCC[C@H]1c1ncc(-c2ccc3c(ccc4cc(-c5cnc([C@@H]6CCCN6C(=O)[C@@H](NC(=O)OC)C(C)C)[nH]5)sc43)c2)[nH]1)C(C)C ?
4 to 6 µM·h

Others:
Name the reported AUC(0-t) at 24 h value associated with the molecule COC(=O)N[C@H](C(=O)N1CCC[C@H]1c1ncc(-c2ccc3c(c2)OCc2cc(-c4cnc([C@@H]5CCCN5C(=O)[C@@H](NC(=O)OC)C(C)C)[nH]4)sc2-3)[nH]1)C(C)C
2 to 6 µM·h
